Origin of measurements: patent US20050074408A1

The entries below come with measured Stoke's Shift values attached.
Test: Fluorescence assay protocol (absorption, excitation and emission scans in MeOH)
Assay type: physicochemical
metric: Stoke's Shift (nm)

compound="CCCCCCCN(C)c1cc(O)c2c(c1)oc(=O)c1ccc(O)cc12 [Compound 15]" metric="Stoke's Shift" data_value=182
compound="CCCCCCCN(C)c1cc(O)c2c(c1)oc(=O)c1ccc(OC)cc12 [Compound 16]" metric="Stoke's Shift" data_value=177
compound="CCCCCCCN(C)c1cc(OC)c2c(c1)oc(=O)c1ccc(C)cc12 [Compound 14]" metric="Stoke's Shift" data_value=60
compound="CCCCCCCC(C)(C)c1cc(OC)c2c3c(c(=O)oc2c1)CCC(C)C3 (centres unmarked) [Compound 32]" metric="Stoke's Shift" data_value=60
compound="CCCCCCN(C)c1cc(O)c2c3c(c(=O)oc2c1)CCC(C)C3 (centres unmarked) [Compound 5]" metric="Stoke's Shift" data_value=92
compound="CCCCCCCN(C)c1cc(O)c2c(c1)oc(=O)c1ccc(C)cc12 [Compound 13]" metric="Stoke's Shift" data_value=200
compound="CCCCCCCN(C)c1cc(O)c2c3c(c(=O)oc2c1)CCC(C)C3 (centres unmarked) [Compound 6]" metric="Stoke's Shift" data_value=93
compound="CCCCCC(C)Oc1cc(O)c2c3c(c(=O)oc2c1)CCC(C)C3 (centres unmarked) [Compound 2]" metric="Stoke's Shift" data_value=97
